molecular target: ASK1/MAP3K5 (Homo sapiens (Human), UniProt Q99683); assay: Evaluation of in vitro enzyme activity (33P-ATP radiometric kinase assay, MBP substrate); details: recombinant human full length GST-tagged ASK1 20 nM, MBP 20 μM
Sequence (Q99683 whole entry): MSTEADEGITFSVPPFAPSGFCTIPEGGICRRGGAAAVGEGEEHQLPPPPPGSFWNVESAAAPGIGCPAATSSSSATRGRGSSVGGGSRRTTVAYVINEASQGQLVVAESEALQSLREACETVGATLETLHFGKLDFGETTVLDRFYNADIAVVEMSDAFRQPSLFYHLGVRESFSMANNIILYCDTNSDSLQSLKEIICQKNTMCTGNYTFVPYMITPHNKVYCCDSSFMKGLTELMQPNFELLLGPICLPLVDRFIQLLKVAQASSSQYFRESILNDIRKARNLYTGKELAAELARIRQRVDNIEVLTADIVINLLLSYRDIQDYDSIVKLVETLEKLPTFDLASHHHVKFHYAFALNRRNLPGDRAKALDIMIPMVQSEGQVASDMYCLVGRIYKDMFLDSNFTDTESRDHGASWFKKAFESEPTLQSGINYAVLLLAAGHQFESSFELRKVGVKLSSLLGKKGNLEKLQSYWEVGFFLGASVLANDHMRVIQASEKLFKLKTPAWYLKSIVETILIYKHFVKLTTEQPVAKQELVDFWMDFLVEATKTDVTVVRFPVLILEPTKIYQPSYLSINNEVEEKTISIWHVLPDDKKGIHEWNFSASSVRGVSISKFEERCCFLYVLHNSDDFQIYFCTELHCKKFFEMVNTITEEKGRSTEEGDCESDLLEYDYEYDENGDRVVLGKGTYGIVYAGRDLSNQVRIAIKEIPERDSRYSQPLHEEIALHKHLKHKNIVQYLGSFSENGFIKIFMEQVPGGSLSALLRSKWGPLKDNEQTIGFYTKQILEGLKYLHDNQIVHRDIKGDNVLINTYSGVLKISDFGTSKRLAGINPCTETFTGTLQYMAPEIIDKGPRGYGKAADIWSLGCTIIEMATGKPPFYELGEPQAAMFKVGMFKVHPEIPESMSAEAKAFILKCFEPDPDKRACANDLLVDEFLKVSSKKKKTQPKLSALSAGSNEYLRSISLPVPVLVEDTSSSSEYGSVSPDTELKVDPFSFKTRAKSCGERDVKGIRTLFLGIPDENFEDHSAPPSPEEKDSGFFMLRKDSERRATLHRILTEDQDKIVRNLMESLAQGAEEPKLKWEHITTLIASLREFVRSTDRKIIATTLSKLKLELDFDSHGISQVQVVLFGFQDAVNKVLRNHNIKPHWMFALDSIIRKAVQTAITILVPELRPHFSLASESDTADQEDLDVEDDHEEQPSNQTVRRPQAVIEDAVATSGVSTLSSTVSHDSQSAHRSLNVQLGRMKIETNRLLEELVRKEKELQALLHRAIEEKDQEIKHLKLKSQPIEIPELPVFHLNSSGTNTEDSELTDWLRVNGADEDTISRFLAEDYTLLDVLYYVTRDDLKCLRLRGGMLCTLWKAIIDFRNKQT
pIC50: −log10 of the molar value.
Listed here are compounds together with their documented pIC50.

Example compounds with recorded pIC50:
{"Compound": "CC(C)n1cnnc1-c1cccc(-n2cnc3cc(OCC(N)=O)c(-n4cnc(C5CC5)c4)cc3c2=O)n1 [Example 038]", "Study Target": "ASK1/MAP3K5 (Homo sapiens (Human), UniProt Q99683)", "pIC50": "≥ 7.30"}
{"Compound": "Cc1cc2ncn(-c3cccc(-c4nncn4C(C)CO)n3)c(=O)c2cc1-n1cnc(C2CC2)c1 (stereo not drawn) [Example 057]", "Study Target": "ASK1/MAP3K5 (Homo sapiens (Human), UniProt Q99683)", "pIC50": "≥ 7.30"}
{"Compound": "CC(C)n1cnnc1-c1cccc(-n2cnc3cc(OCC4COC4)c(-n4cnc(C5CC5)c4)cc3c2=O)n1 [Example 058]", "Study Target": "ASK1/MAP3K5 (Homo sapiens (Human), UniProt Q99683)", "pIC50": "≥ 7.30"}
{"Compound": "CC(C)n1cnnc1-c1cccc(-n2cnc3cc(N(C)C)c(-n4cnc(C5CC5)c4)cc3c2=O)n1 [Example 055]", "Study Target": "ASK1/MAP3K5 (Homo sapiens (Human), UniProt Q99683)", "pIC50": "≥ 7.30"}

Let me know recorded pIC50 for CC(C)n1cnnc1-c1cccc(-n2cnc3ccc(-n4cnc(C5CC5)c4)cc3c2=O)n1 [Example 013] , thanks.
≥ 7.30

Let me know recorded pIC50 for CC(C)n1cnnc1-c1cccc(-n2cnc3cc(-c4ccccc4)c(-n4cnc(C5CC5)c4)cc3c2=O)n1 [Example 023] , thanks.
≥ 7.30

Let me know recorded pIC50 for CC(C)n1cnnc1-c1cccc(-n2cnc3cc(-c4cccnc4)c(-n4cnc(C5CC5)c4)cc3c2=O)n1 [Example 024] , thanks.
≥ 7.30

Let me know recorded pIC50 for CC(C)n1cnnc1-c1cccc(-n2cnc3cc(OCCO)c(-n4cnc(C5CC5)c4)cc3c2=O)n1 [Example 041] , thanks.
≥ 7.30

Let me know recorded pIC50 for Cc1cc2ncn(-c3csc(-c4nncn4C(C)C)c3)c(=O)c2cc1-n1cnc(C2CC2)c1 [Example 042] , thanks.
< 6.00

Let me know recorded pIC50 for CC(C)n1cnnc1-c1cccc(-n2cc(F)c3ccc(-n4cnc(C5CC5)c4)cc3c2=O)n1 [Example 003] , thanks.
≥ 7.30

Let me know recorded pIC50 for COc1nc2cc(C)c(-n3cnc(C4CC4)c3)cc2c(=O)n1-c1cccc(-c2nncn2C(C)C)n1 [Example 029] , thanks.
< 6.00

Let me know recorded pIC50 for Cc1cc2ncn(-c3cccc(-c4nncn4C(C)C)c3)c(=O)c2cc1-n1cnc(C2CC2)c1 [Example 043] , thanks.
< 6.00

Let me know recorded pIC50 for CC(C)n1cnnc1-c1cccc(N2Cc3ccc(-n4cnc(C5CC5)c4)cc3C2=O)n1 [Example 005] , thanks.
≥ 7.30

Let me know recorded pIC50 for Cc1nnc(-c2cccc(-n3cnc4cc(C)c(-n5cnc(C6CC6)c5)cc4c3=O)n2)o1 [Example 020] , thanks.
< 6.00

Let me know recorded pIC50 for O=C1c2cc(-n3cnc4c3CCCC4)ccc2CCN1c1cccc(-c2nnc3n2CCCC3)n1 [Example 010] , thanks.
6.00 to 7.30

Let me know recorded pIC50 for COc1ccc(-c2cc3ncn(-c4cccc(-c5nncn5C(C)C)n4)c(=O)c3cc2-n2cnc(C3CC3)c2)cn1 [Example 033] , thanks.
≥ 7.30

Let me know recorded pIC50 for Cc1cc2ncn(-c3cccc(-c4nnc(C)n4C(C)C)n3)c(=O)c2cc1-n1cnc(C2CC2)c1 [Example 016] , thanks.
6.00 to 7.30

Let me know recorded pIC50 for Cc1cc2ncn(-c3cccc(-c4nncn4C(C)C)n3)c(=O)c2cc1-n1cnc(C2CC2)c1 [Example 011] , thanks.
≥ 7.30
